System: IL-6 secretion in LPS-stimulated THP-1 cells
assay_method_text: Cell-based IL-6 quantification assay (ELISA, Mesoscale)
test_context: Homo sapiens, LPS 4 μg/mL, 16 h, read-out: IL-6 Cellular EC50
pEC50: −log10 of the molar value.
reported_property: pEC50

Here's what some known entries look like.
// query pEC50 value for entry Cc1ccc(-c2ccc3c(c2)C(c2ccc(Cl)cc2)=N[C@@H](CC(N)=O)c2onc(C)c2-3)cn1 [Compound 403]
7.54

// query pEC50 value for entry Cc1noc2c1-c1ccc(-c3cnn(C)c3)cc1C(c1ccc(Cl)cc1)=N[C@H]2CC(N)=O [Compound 401]
7.82

// query pEC50 value for entry Cc1noc(-c2ccc3c(c2)C(c2ccc(Cl)cc2)=N[C@@H](CC(N)=O)c2onc(C)c2-3)n1 [Compound 404]
7.44

(I) Cc1noc2c1-c1ccc(-c3cnn(C)c3)cc1C(c1ccc(Cl)cc1)=N[C@H]2CC(=O)N(C)C [Compound 402]
(II) Cc1noc2c1-c1ccc(-c3cnn(C)c3)cc1C(c1ccc(Cl)cc1)=N[C@H]2CC(=O)O [Compound 405]
Of the two listed items, which has the higher pEC50? First: I Second: II Refer to your chosen entry by its label in the reply.
I
(I: 8.15, II: 6.38)

Data provenance: patent US9493483B2
